Target chain: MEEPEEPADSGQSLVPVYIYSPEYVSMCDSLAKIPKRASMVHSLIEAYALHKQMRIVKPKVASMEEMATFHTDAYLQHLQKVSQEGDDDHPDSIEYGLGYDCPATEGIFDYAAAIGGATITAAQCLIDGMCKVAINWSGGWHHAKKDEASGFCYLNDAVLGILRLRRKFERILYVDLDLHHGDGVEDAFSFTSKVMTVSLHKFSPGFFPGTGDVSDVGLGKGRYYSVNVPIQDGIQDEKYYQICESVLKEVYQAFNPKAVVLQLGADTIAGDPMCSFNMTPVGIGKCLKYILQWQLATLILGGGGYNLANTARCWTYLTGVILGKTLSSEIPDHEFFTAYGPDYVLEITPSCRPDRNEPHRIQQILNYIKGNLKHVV
pIC50: −log10 of the molar value.
experimental-endpoint: pIC50

Here are 3 molecules together with their reported answers.
INSERT INTO assay_data (smiles_code, recorded_number) VALUES
  ('Cn1cc(C=O)cc1CCC(=O)NO', 4.28),
  ('O=C(/C=C/c1ccc(Cc2ccc(O)c(Cl)c2)cc1)NO', 6.34),
  ('O=C(NCc1ccc(C(=O)Nc2ccccc2O)cc1)OCc1cccnc1', 5.66);

A: O=C(CCc1ccc(-c2ccc(O)cc2)cc1)NO
B: O=C(CCCCCCCC(=O)c1ccccc1)NO
C: Cc1ccc(N)c(NC(=O)c2ccc(CNC(=O)OCc3cccnc3)cc2)c1
Arrange these molecules by their pIC50, starting with the largest number. In plain terms: list the labels in the order you were asked to.
B, A, C
(B: 7.19, A: 5.77, C: 5.55)

Hello, the source for this data is ChEMBL document CHEMBL3045730, in case you need it.
